Numbers sourced from patent US20210403579A1.

# TARGET_ENTITY: T1, Human ST2 (human, UniProt Q01638 19-328, limits assumed)
# T1 construct: also called human ST2 protein; Interleukin 1 receptor-like 1
# T1 sequence (looked up): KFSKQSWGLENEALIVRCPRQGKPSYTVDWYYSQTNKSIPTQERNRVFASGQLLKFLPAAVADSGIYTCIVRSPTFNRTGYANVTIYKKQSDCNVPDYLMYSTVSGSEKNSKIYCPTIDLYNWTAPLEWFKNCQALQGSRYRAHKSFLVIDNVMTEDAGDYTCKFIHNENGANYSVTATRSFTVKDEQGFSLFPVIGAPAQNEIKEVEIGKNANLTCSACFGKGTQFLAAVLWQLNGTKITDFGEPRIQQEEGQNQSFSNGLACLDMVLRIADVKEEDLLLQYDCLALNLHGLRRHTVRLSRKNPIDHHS
# ASSAY_COMMENT: SPR (Carterra), antibody immobilized, ST2 analyte
Reported pKd values for a set of binders
Would you please state pKd, meaning minus log10 of the concentration in mol/L, as a bare number?

Examples from the recorded data:
Item Human ST2 IgG1 Antibody 20 (antibody, V domains shown, IgG1; also called ST2 Antibody 20) VH: EVQLLESGAEVKKPGSSVKVSCKASGGTFSSYAISWVRQAPGQGLEWMGGIIPIFGTANYAQKFQGRVTITADESTSTAYMELSSLRSEDTAVYYCASGFYSNDLYYYYYMDVWGKGTTVTVSS VL: DIQMTQSPSSLSASVGDRVTITCRASQSISSWLAWYQQKPGKAPKLLIYDASNLKTGVPSRFSGSGSGTDFTLTISSLQPEDFATYYCQQTYAIPLTFGGGTKVEIKR : provide pKd
7.09

Specify measured pKd for Human ST2 IgG1 Antibody 75 (antibody, V domains shown, IgG1; also called ST2 Antibody 75) VH: EVQLLESGGGLVQHGGSLRLSCAASGFTFSSYWMSWVRQAPGKGLEWVSSISSSSSYIYYADSVKGRFTISRDNSKNTLYLQMNSLRAEDTAVYYCARDIAGYFDLWGRGTLVTVSS VL: DIQMTQSPSSLSASVGDRVTITCQASQSISSYLNWYQQKPGKAPKLLIYAASSLQSGVPSRFSGSGSGTDFTLTISSLQPEDFATYYCQQGYLTPYTFGQGTKLEIKR .
6.44

Look up pKd of Human ST2 IgG1 Antibody 86 (antibody, V domains shown, IgG1; also called ST2 Antibody 86) VH: QVQLVQSGAEVKKPGSSVKVSCKASGGTFSNYAISWVRQAPGQGLEWMGGIIPIFGTANYAQKFQGRVTITADESTSTAYMELSSLRSEDTAVYYCAKDLGGWFNLFDPWGQGTLVTVSS VL: EIVMTQSPATLSVSPGERATLSCRASQGVSSYLAWYQQKPGQAPRLLIYGASTRATGIPARFSGSGSGTEFTLTISSLQSEDFAVYYCQQYRSFPLTFGGGTKVEIKR and report it.
7.39

Note down pKd recorded for Human ST2 IgG1 Antibody 100 (antibody, V domains shown, IgG1; also called ST2 Antibody 100) VH: EVQLLESGGGLVQPGGSLRLSCAASGFTFSNYAMAWVRQAPGKGLEWVSWISGSGSYIYYADSVKGRFTISRDNSKNTLYLQMNSLRAEDTAVYYCARRGSSWSNFDYWGQGTLVTVSS VL: DIQMTQSPSSLSASVGDRVTITCRASQTISTYLNWYQQKPGKAPKLLIYDASNLETGVPSRFSGSGSGTDFTLTISSLQPEDFATYYCQQSYSTPITFGQGTKVEIKR
6.47

Check the records and state pKd for Human ST2 IgG1 Antibody 4 (antibody, V domains shown, IgG1; also called ST2 Antibody 4) VH: QVQLVQSGAEVKKPGSSVKVSCKASGGTFSTFGVSWVRQAPGQGLEWMGRIIPILATTNYAQKFQGRVTITADESTSTAYMELSSLRSEDTAVYYCASGDYYDSSGYYGYFQHWGQGTLVTVSS VL: EIVMTQSPATLSVSPGERATLSCRASQSVSSSYLAWYQQKPGQAPRLLIYGASTRATGIPARFSGSGSGTEFTLTISSLQSEDFAVYYCQQSYSIPFTFGQGTKLEIKR
7.92

Further cases:
Specify pKd for Human ST2 IgG1 Antibody 46 (antibody, V domains shown, IgG1; also called ST2 Antibody 46) VH: EVQLLESGGGLVKPGGSLRLSCAASGFTFSSYWMSWVRQAPGKGLEWVSSISGTSNYMYYADSVKGRFTISRDDSKNTLYLQMNSLKTEDTAVYYCARDRGFLGYFDYWGQGTLVTVSS VL: DIQMTQSPSSLSASVGDRVTITCQASQYISNYLNWYQQKPGKAPKLLIYGASTLQSGVPSRFSGSGSGTDFTLTISSLQPEDFATYYCQQSQSTPLTFGPGTKVDIKR and stop.
6.47

For the binder Human ST2 IgG1 Antibody 14 (antibody, V domains shown, IgG1; also called ST2 Antibody 14) VH: QVQLVQSGAEVKKPGSSVKVSCKASGYTFTSYGISWVRQAPGQGLEWMGGIIPIFGTANYAPRFQGRVTITADESTSTAYMELSSLRSEDTAVYYCARDTVSMDVWGQGTTVTVSS VL: DIVMTQSPLSLPVTPGEPASISCRSSQSLLHSNGYNYLDWYLQKPGQSPQLLIYDASNLETGVPDRFSGSGSGTDFTLKISRVEAEDVGVYYCMQGAHWPPTFGQGTKLEIKR , give its reported pKd.
7.38

Let me know recorded pKd for Human ST2 IgG1 Antibody 19 (antibody, V domains shown, IgG1; also called ST2 Antibody 19) VH: EVQLLESGGGLVQPGGSLRLSCAASGFSFSHAWMSWVRQAPGKGLEWVSVIHSGGSTFYADSVKGRFTISRDNSKNTLYLQMNSLRAEDTAVYYCARIGKGGGFDYWGQGTLVTVSS VL: DIQMTQSPSSLSASVGDRVTITCRASQDIGSWLAWYQQKPGKAPKLLIYAASSLQSGVPSRFSGSGSGTDFTLTISSLQPEDFATYYCQQSYSTPPTFGQGTKVEIKR , thanks.
6.95

# return recorded pKd for input Human ST2 IgG1 Antibody 52 (antibody, V domains shown, IgG1; also called ST2 Antibody 52) VH: QVQLVQSGAEVKKPGSSVKVSCKASGGTFSNYAISWVRQAPGQGLEWMGWISAYNGNTNYAQKFQGRVTITADESTSTAYMELSSLRSEDTAVYYCARLSTVTTRPYYYYGMDVWGQGTTVTVSS VL: DIVMTQSPLSLPVTPGEPASISCRSSQSLLHSNGYNYLDWYLQKPGQSPQLLIYAASSLQGGVPDRFSGSGSGTDFTLKISRVEAEDVGVYYCMQGTHWPTFGQGTKVEIKR
6.03

Hello, please tell me recorded pKd for this one: Human ST2 IgG1 Antibody 58 (antibody, V domains shown, IgG1; also called ST2 Antibody 58) VH: EVQLLESGAEVKKPGSSVKVSCKASGGTFSSYAISWVRQAPGQGLEWMGGIIPIFGTANYAQKFQGRVTITADKSTSTAYMELSSLRSEDTAVYYCARPRLAVAGGWYFDLWGRGTLVTVSS VL: DIQMTQSPSSLSASVGDRVTITCQASQDISNYLNWYQQKPGKAPKLLIYAASSLQSGVPSRFSGSGSGTDFTLTISSLQPEDFATYYCQQSFSSTPTFGQGTKLEIKR
6.20
